All values here come from ChEMBL document CHEMBL6178013.

# MEASURED TARGET: Chloride
# ASSAY TEXT: Binding affinity to chloride anions assessed as anionophoric activity in egg-yolk L-alpha-phosphatidylcholine liposome model measured per lipid by pyranine-based fluorescent assay
# reported EC50; entries follow
TEST READOUT: EC50

• O=[N+]([O-])c1cc(-c2nc3ccc(C(F)(F)F)cc3[nH]2)cc(-c2nc3ccc(C(F)(F)F)cc3[nH]2)c1 = 2 10^-3mol%
• c1cc(-c2nc3ccccc3[nH]2)cc(-c2nc3ccccc3[nH]2)c1 = 2.76 10^-3mol%
• FC(F)(F)c1cc(C(F)(F)F)c2nc(-c3cccc(-c4nc5c(C(F)(F)F)cc(C(F)(F)F)cc5[nH]4)c3)[nH]c2c1 = 0.27 mol%
• O=[N+]([O-])c1cc(-c2nc3c(C(F)(F)F)cc(C(F)(F)F)cc3[nH]2)cc(-c2nc3c(C(F)(F)F)cc(C(F)(F)F)cc3[nH]2)c1 = 5.34 10^-3mol%
• FC(F)(F)c1ccc2nc(-c3cccc(-c4nc5ccc(C(F)(F)F)cc5[nH]4)c3)[nH]c2c1 = 9.67 mol%
• O=[N+]([O-])c1cc(-c2nc3cc(F)c(C(F)(F)F)cc3[nH]2)cc(-c2nc3cc(F)c(C(F)(F)F)cc3[nH]2)c1 = 2.37 10^-2mol%
• Fc1cc(-c2nc3cc(F)c(C(F)(F)F)cc3[nH]2)cc(-c2nc3cc(F)c(C(F)(F)F)cc3[nH]2)c1 = 3.79 10^-2mol%
• Fc1cc(-c2nc3ccc(C(F)(F)F)cc3[nH]2)cc(-c2nc3ccc(C(F)(F)F)cc3[nH]2)c1 = 1.54 10^-2mol%
• Fc1cc2nc(-c3cccc(-c4nc5cc(F)c(C(F)(F)F)cc5[nH]4)c3)[nH]c2cc1C(F)(F)F = 0.64 mol%
• Fc1cc(-c2nc3c(C(F)(F)F)cc(C(F)(F)F)cc3[nH]2)cc(-c2nc3c(C(F)(F)F)cc(C(F)(F)F)cc3[nH]2)c1 = 4.16 10^-2mol%

---

# ASSAY TEXT: Cmax in male CD-1 mouse at 1 mg/kg, iv measured for 0.083 to 48 hrs by HPLC/MS/MS analysis
# Assay type: ADME, organism-based
# TEST CONTEXT: in vivo, time 0.083-48 hrs
TEST READOUT: Cmax

• Fc1cc(-c2nc3c(C(F)(F)F)cc(C(F)(F)F)cc3[nH]2)cc(-c2nc3c(C(F)(F)F)cc(C(F)(F)F)cc3[nH]2)c1 = 22700 ng/mL

---

# System: HepG2
# ASSAY TEXT: Cytotoxicity against human HepG2 cells incubated for 48 hrs by MTT assay
# Format: functional, cell-based
# TEST CONTEXT: HepG2, 48 h
# reported IC50; entries follow
TEST READOUT: IC50 (nM)

* O=[N+]([O-])c1cc(-c2nc3cc(F)c(C(F)(F)F)cc3[nH]2)cc(-c2nc3cc(F)c(C(F)(F)F)cc3[nH]2)c1 | 2200
* COc1cccc2c1C(=O)c1c(O)c3c(c(O)c1C2=O)C[C@@](O)(C(=O)CO)C[C@@H]3O[C@H]1C[C@H](N)[C@H](O)[C@H](C)O1 [DOXORUBICIN] | 2300
* Fc1cc(-c2nc3ccc(C(F)(F)F)cc3[nH]2)cc(-c2nc3ccc(C(F)(F)F)cc3[nH]2)c1 | 1670

---

# Test system: HepG2
# ASSAY TEXT: Cytotoxicity against human HepG2 cells incubated for 48 hrs by MTT assay
# Type: functional, cell-based
# TEST CONTEXT: HepG2, 48 h
# reported IC50; entries follow
TEST READOUT: IC50

* Fc1cc2nc(-c3cccc(-c4nc5cc(F)c(C(F)(F)F)cc5[nH]4)c3)[nH]c2cc1C(F)(F)F | 11.2 µM
* O=[N+]([O-])c1cc(-c2nc3ccc(C(F)(F)F)cc3[nH]2)cc(-c2nc3ccc(C(F)(F)F)cc3[nH]2)c1 | 6.8 µM
* FC(F)(F)c1ccc2nc(-c3cccc(-c4nc5ccc(C(F)(F)F)cc5[nH]4)c3)[nH]c2c1 | 10.6 µM
* Fc1cc(-c2nc3c(C(F)(F)F)cc(C(F)(F)F)cc3[nH]2)cc(-c2nc3c(C(F)(F)F)cc(C(F)(F)F)cc3[nH]2)c1 | 2.47 µM
* Fc1cc(-c2nc3cc(F)c(C(F)(F)F)cc3[nH]2)cc(-c2nc3cc(F)c(C(F)(F)F)cc3[nH]2)c1 | 3.13 µM
* FC(F)(F)c1cc(C(F)(F)F)c2nc(-c3cccc(-c4nc5c(C(F)(F)F)cc(C(F)(F)F)cc5[nH]4)c3)[nH]c2c1 | 8.3 µM
* O=[N+]([O-])c1cc(-c2nc3c(C(F)(F)F)cc(C(F)(F)F)cc3[nH]2)cc(-c2nc3c(C(F)(F)F)cc(C(F)(F)F)cc3[nH]2)c1 | 16.5 µM

---

# ASSAY TEXT: MRT (0 to t) in male CD-1 mouse at 1 mg/kg, ip measured for 0.083 to 48 hrs by HPLC/MS/MS analysis
# Type: ADME, organism-based
# TEST CONTEXT: in vivo, time 0.083-48 hrs
TEST READOUT: MRT last (h)

* Fc1cc(-c2nc3c(C(F)(F)F)cc(C(F)(F)F)cc3[nH]2)cc(-c2nc3c(C(F)(F)F)cc(C(F)(F)F)cc3[nH]2)c1 | 24.9

---

# ASSAY TEXT: Aqueous solubility of compound
# Format: physicochemical
TEST READOUT: solubility (µg/mL)

- Fc1cc(-c2nc3c(C(F)(F)F)cc(C(F)(F)F)cc3[nH]2)cc(-c2nc3c(C(F)(F)F)cc(C(F)(F)F)cc3[nH]2)c1: 200

---

# Test system: Chloride
# ASSAY TEXT: Binding affinity to chloride anions using tetrabutylammonium chloride salt assessed as association constant by 1H NMR spectroscopy
TEST READOUT: Ka

• Fc1cc(-c2nc3c(C(F)(F)F)cc(C(F)(F)F)cc3[nH]2)cc(-c2nc3c(C(F)(F)F)cc(C(F)(F)F)cc3[nH]2)c1 = 1.48 10^3/M
• O=[N+]([O-])c1cc(-c2nc3cc(F)c(C(F)(F)F)cc3[nH]2)cc(-c2nc3cc(F)c(C(F)(F)F)cc3[nH]2)c1 = 4.95 10^3/M
• FC(F)(F)c1cc(C(F)(F)F)c2nc(-c3cccc(-c4nc5c(C(F)(F)F)cc(C(F)(F)F)cc5[nH]4)c3)[nH]c2c1 = 2.93 10^4/M
• Fc1cc2nc(-c3cccc(-c4nc5cc(F)c(C(F)(F)F)cc5[nH]4)c3)[nH]c2cc1C(F)(F)F = 6.96 10^3/M
• Fc1cc(-c2nc3ccc(C(F)(F)F)cc3[nH]2)cc(-c2nc3ccc(C(F)(F)F)cc3[nH]2)c1 = 1.17 10^4/M
• FC(F)(F)c1ccc2nc(-c3cccc(-c4nc5ccc(C(F)(F)F)cc5[nH]4)c3)[nH]c2c1 = 3.51 10^3/M
• Fc1cc(-c2nc3cc(F)c(C(F)(F)F)cc3[nH]2)cc(-c2nc3cc(F)c(C(F)(F)F)cc3[nH]2)c1 = 1.01 10^3/M

---

# ASSAY TEXT: AUC (0 to infinity) in male CD-1 mouse at 1 mg/kg, iv measured for 0.083 to 48 hrs by HPLC/MS/MS analysis
# Type: ADME, organism-based
# TEST CONTEXT: in vivo, time 0.083-48 hrs
TEST READOUT: AUC(0-inf) (ng·h/mL)

• Fc1cc(-c2nc3c(C(F)(F)F)cc(C(F)(F)F)cc3[nH]2)cc(-c2nc3c(C(F)(F)F)cc(C(F)(F)F)cc3[nH]2)c1 = 17800

---

# ASSAY TEXT: Cmax in male CD-1 mouse at 1 mg/kg, ip measured for 0.083 to 48 hrs by HPLC/MS/MS analysis
# Type: ADME, organism-based
# TEST CONTEXT: in vivo, time 0.083-48 hrs
TEST READOUT: Cmax

- Fc1cc(-c2nc3c(C(F)(F)F)cc(C(F)(F)F)cc3[nH]2)cc(-c2nc3c(C(F)(F)F)cc(C(F)(F)F)cc3[nH]2)c1: 270 ng/mL

---

# Tested on: Chloride
# ASSAY TEXT: Binding affinity to chloride anions in human HeLa cells assessed as decrease in orange fluorescence in cytoplasm at 5 uM incubated for 6 hrs by AO staining based analysis relative to control
# Assay type: cell-based
# Design: scale not given: the % may be the effect or the level left
TEST READOUT: Activity

• O=[N+]([O-])c1cc(-c2nc3cc(F)c(C(F)(F)F)cc3[nH]2)cc(-c2nc3cc(F)c(C(F)(F)F)cc3[nH]2)c1 = 100%
• Fc1cc(-c2nc3c(C(F)(F)F)cc(C(F)(F)F)cc3[nH]2)cc(-c2nc3c(C(F)(F)F)cc(C(F)(F)F)cc3[nH]2)c1 = 100%
• O=[N+]([O-])c1cc(-c2nc3c(C(F)(F)F)cc(C(F)(F)F)cc3[nH]2)cc(-c2nc3c(C(F)(F)F)cc(C(F)(F)F)cc3[nH]2)c1 = 100%
